The values you see were collected from ChEMBL document CHEMBL1141229.

- system-tested: Muscarinic acetylcholine receptor M1 (Homo sapiens, UniProt P11229)
- Sequence (P11229 whole entry, looked up): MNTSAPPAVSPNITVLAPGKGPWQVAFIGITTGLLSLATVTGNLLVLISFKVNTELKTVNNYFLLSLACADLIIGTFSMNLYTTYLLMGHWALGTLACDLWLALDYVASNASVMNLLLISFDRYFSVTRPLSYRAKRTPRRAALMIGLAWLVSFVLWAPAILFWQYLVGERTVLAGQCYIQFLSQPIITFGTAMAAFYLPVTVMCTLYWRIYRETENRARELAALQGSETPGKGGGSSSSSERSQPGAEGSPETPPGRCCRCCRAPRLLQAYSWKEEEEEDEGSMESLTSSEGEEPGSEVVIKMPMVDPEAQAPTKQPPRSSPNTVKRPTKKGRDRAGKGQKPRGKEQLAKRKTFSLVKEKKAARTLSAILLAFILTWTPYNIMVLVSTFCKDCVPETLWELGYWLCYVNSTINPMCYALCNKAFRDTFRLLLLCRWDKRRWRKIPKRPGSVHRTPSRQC
- assay-remarks: Displacement of [3H]QNB from EGFP(delta-17)human M1 receptor expressed in HEK cells
- assay-setup: hek293
parameter-measured: Ki

Some solved entries appear below for comparison.
CCN1/C(=C/C=C/c2ccc3cc(NC(=O)CCCCC(=O)O)ccc3[n+]2CC)C=Cc2ccccc21 > 10000 nM
CCN(CC)c1ccc([C+](c2ccc(N(CC)CC)cc2)c2ccc(S(=O)(=O)NCCCCCC(=O)NCCOCCOCCN3CCN(CC(=O)N4c5ccccc5C(=O)Nc5cccnc54)CC3)cc2S(=O)(=O)[O-])cc1 189 nM
CCN(CC)c1ccc([C+](c2ccc(N(CC)CC)cc2)c2ccc(S(=O)(=O)NCCCCCC(=O)O)cc2S(=O)(=O)[O-])cc1 > 10000 nM

Query string: Entry CCN1/C(=C/C=C/c2ccc3cc(NC(=O)CCCCC(=O)NCCOCCOCCN4CCN(CC(=O)N5c6ccccc6C(=O)Nc6cccnc65)CC4)ccc3[n+]2CC)C=Cc2ccccc21 has what Ki?
Result string: 29.4 nM

Query string: Entry O=C(CCCCCNC(=O)CCc1ccc2n1[B-](F)(F)[N+]1=C(c3cccs3)C=CC1=C2)NCCCCN1CCN(CC(=O)N2c3ccccc3C(=O)Nc3cccnc32)CC1 has what Ki?
Result string: 69.7 nM

Query string: Entry CCN(CC)c1ccc2c(-c3ccc(S(=O)(=O)NCCCCCC(=O)NCCOCCOCCN4CCN(CC(=O)N5c6ccccc6C(=O)Nc6cccnc65)CC4)cc3S(=O)(=O)[O-])c3ccc(=[N+](CC)CC)cc-3oc2c1 has what Ki?
Result string: 53.5 nM
